src = PubChem BioAssay (NCI)

system: SW-620 colon; experiment: NCI-60 one-dose screen, 48 h (100 = growth as untreated, 0 = no growth, -100 = all killed); details: 10 µM unless noted
Compounds without any hit were thinned out: in the full panel of roughly 83,000, 20% have a hit.
Listing of recorded growth by entry.
Use % as the unit, but write only the number.

O=S(=O)(NCCNc1cc(-c2c(-c3cccc(O)c3)nc3sccn23)ccn1)c1ccc(Br)cc1 | 76.8
CCCCCCCCCCCCCCCCCC1=NCCN1C(=O)OCCO | -76.8
Cc1nn(Cc2ccccc2)cc1C(=O)Nc1sc2c(c1C(N)=O)CCC(=O)C2 | 13.4
COc1ccc(-c2c(N)n[nH]c2-c2ccccc2O)cc1OC | 110

Notebook entry, SW-620 colon assay: growth of `C=C1C(=O)O[C@H]2[C@H]1CC/C(Cn1cc(CNCCc3c[nH]c4ccccc34)nn1)=C\CC[C@@]1(C)O[C@@H]21` = ?
46.1

Also check `COc1cc(-c2ccc(N=Nc3c(O)c(C(=O)Nc4ccccc4OC)cc4ccccc34)c(OC)c2)ccc1N=Nc1c(O)c(C(=O)Nc2ccccc2OC)cc2ccccc12`
91.8

// query: `C#C[C@]1(O)CC[C@H]2[C@@H]3CC=C4c5sc(N=C(N)N)nc5CC[C@]4(C)[C@H]3CC[C@@]21C`
-47.1

Could you do the same for CCOC(=O)C1C(=O)C=C(c2cnccn2)CC1c1ccc(OC)c(OC)c1 (stereo unspecified) , please?
106

`CS(=O)(=O)c1ccc(-c2[nH]c3ccc(F)cc3c2/C=N/O)cc1` , same question.
110

Next entry: `N#Cc1c(-c2ccc(C(F)(F)F)cc2)cc(N2CC(O)C2)n2c1nc1ccccc12`
82.8

Do the same for `CC(C)(C)N1CC(OC(N)=O)C1` please
104

Field entry: `O=C(Nc1ccccc1Cl)OCCN1CCOCC1`
104

Same again, this time with `COc1ccc(-n2nnc(C(=O)NCCc3c[nH]c4ccc(F)cc34)c2C)cc1`
101

`COC(=O)Nc1nc2ccc(C(=O)C3CC3)cc2[nH]1` , same question.
20.6
